- Target Of Assay: recombinant trimeric H5 HA (A/VN/1203/04) (influenza A virus A/VN/1203/04 (H5N1))
- Assay Info: ELISA
Measurement Name: K50 (µg/mL)
Write down the numeric answer in µg/mL and omit the unit.

Binder	Measurement Units	K50
FC6 (antibody, V domains shown) VH: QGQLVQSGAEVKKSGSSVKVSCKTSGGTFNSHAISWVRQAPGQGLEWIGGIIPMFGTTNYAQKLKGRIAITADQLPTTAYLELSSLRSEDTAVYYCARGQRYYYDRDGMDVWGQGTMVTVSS VL: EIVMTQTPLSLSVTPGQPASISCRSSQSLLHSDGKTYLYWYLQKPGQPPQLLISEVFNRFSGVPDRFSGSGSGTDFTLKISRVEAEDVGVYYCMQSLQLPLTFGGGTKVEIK	µg/mL	0.157
FE43 (antibody, V domains shown) VH: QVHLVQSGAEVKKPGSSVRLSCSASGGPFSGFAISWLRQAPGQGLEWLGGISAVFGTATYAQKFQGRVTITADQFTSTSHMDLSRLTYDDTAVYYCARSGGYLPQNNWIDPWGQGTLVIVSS VL: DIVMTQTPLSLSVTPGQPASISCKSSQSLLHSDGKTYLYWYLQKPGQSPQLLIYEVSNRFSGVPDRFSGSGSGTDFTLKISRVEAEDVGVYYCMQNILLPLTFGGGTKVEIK	µg/mL	0.029
FE53 (antibody, V domains shown) VH: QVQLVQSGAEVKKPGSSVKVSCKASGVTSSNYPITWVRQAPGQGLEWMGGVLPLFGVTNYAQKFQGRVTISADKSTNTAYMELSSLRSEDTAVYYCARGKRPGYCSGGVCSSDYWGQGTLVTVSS VL: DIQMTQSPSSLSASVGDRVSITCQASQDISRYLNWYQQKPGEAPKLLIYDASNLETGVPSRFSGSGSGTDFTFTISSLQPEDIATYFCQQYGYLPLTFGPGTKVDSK	µg/mL	0.015

Next binder, K50 to be filled in.
Form field K50, entry FB139 (antibody, V domains shown) VH: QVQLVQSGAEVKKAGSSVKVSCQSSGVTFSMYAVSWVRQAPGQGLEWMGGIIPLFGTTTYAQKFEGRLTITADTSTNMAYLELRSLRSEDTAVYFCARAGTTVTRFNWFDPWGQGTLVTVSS VL: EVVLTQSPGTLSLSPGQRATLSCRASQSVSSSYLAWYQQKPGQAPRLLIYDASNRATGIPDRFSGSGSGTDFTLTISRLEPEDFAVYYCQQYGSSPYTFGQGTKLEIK : 0.033
